Where these numbers come from: paper PMC10397247

Molecular target: T1, P5A-bP
T1 chain: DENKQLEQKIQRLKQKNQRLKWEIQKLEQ
Assay: two-hybrid library CCNG1;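 also: natural log of median RNA to DNA barcode read ratio; higher means stronger binding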
property-measured: interaction score

binder	interaction score
DKNKQLKQKIQRLKQKIQRLKWENQKLEQ [P12A-bP]	-1.95

(1) DKIKQLKQKNQRLKQKNQRLKWKIQKLKQ [P2A-bP]
(2) DENKQLEQEIQRLEQEIQRLEWKNQKLKQ [P11A-bP]
(3) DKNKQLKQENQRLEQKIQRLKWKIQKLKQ [P10A-bP]
Query: List from greatest to least interaction score. List each label, following the requested order.
Response: 2, 3, 1
